B1: Pistol ribozyme (parent)
chain: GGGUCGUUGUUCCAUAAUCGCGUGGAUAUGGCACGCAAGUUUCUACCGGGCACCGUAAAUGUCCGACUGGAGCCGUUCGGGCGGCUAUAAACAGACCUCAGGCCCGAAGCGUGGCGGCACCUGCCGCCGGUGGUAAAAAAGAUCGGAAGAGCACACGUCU

Variants of: B1
protocol: aptazyme ON/OFF ratio, guanine; higher = stronger switching; co-transcriptional cleavage with and without guanine
measured_attribute: aptazyme ON/OFF ratio

[[record]]
alteration = "U7A U8A G9U U11A C12A C13G"
measured_attribute = "aptazyme ON/OFF ratio"
measured = 1.12

[[record]]
alteration = "U7A U8C G9A U10C U11A C12A C13A"
measured_attribute = "aptazyme ON/OFF ratio"
measured = 1.13

[[record]]
alteration = "G9C U10G C13U"
measured_attribute = "aptazyme ON/OFF ratio"
measured = 1.49

[[record]]
alteration = "G9C U11G C12U C13U"
measured_attribute = "aptazyme ON/OFF ratio"
measured = 1.41

[[record]]
alteration = "U8G G9A U11A C12G C13A"
measured_attribute = "aptazyme ON/OFF ratio"
measured = 1.08

[[record]]
alteration = "U8C G9U U11G C12U C13A"
measured_attribute = "aptazyme ON/OFF ratio"
measured = 1.16

[[record]]
alteration = "U7C U8A G9U U10A U11A C13U"
measured_attribute = "aptazyme ON/OFF ratio"
measured = 1.19

[[record]]
alteration = "U7G U8C G9C U10A C13A"
measured_attribute = "aptazyme ON/OFF ratio"
measured = 1.08

[[record]]
alteration = "U7G U8A G9C U10G C12U C13U"
measured_attribute = "aptazyme ON/OFF ratio"
measured = 1.06

[[record]]
alteration = "U8G U11G C12A"
measured_attribute = "aptazyme ON/OFF ratio"
measured = 1.44

[[record]]
alteration = "U7G U8A G9A U10C C13U"
measured_attribute = "aptazyme ON/OFF ratio"
measured = 1.13

[[record]]
alteration = "U7C U8A G9C U10A U11C C12A C13U"
measured_attribute = "aptazyme ON/OFF ratio"
measured = 1.15

[[record]]
alteration = "U7C U8A U10A U11C"
measured_attribute = "aptazyme ON/OFF ratio"
measured = 1.05

[[record]]
alteration = "U7G G9U U10G U11G C12G C13A"
measured_attribute = "aptazyme ON/OFF ratio"
measured = 1.1

[[record]]
alteration = "U8G G9U U10C C13U"
measured_attribute = "aptazyme ON/OFF ratio"
measured = 1.03

[[record]]
alteration = "U7C U8G G9U U10G U11A C12A C13A"
measured_attribute = "aptazyme ON/OFF ratio"
measured = 1.18

[[record]]
alteration = "U7C U8A U10C U11A C12G C13G"
measured_attribute = "aptazyme ON/OFF ratio"
measured = 1.25

[[record]]
alteration = "U8A G9U U10G C13U"
measured_attribute = "aptazyme ON/OFF ratio"
measured = 1.55

[[record]]
alteration = "U7C U8A G9A U11G C12G"
measured_attribute = "aptazyme ON/OFF ratio"
measured = 1.12

[[record]]
alteration = "U7G G9U U10A C13G"
measured_attribute = "aptazyme ON/OFF ratio"
measured = 1.18

[[record]]
alteration = "U8A G9U C12A C13U"
measured_attribute = "aptazyme ON/OFF ratio"
measured = 1.15

[[record]]
alteration = "G9C U10C U11G C13G"
measured_attribute = "aptazyme ON/OFF ratio"
measured = 1.08

[[record]]
alteration = "U7G U8C G9U U10A U11G C12A C13A"
measured_attribute = "aptazyme ON/OFF ratio"
measured = 1.1

[[record]]
alteration = "U8C G9A U10A U11C C12U"
measured_attribute = "aptazyme ON/OFF ratio"
measured = 1.09

[[record]]
alteration = "U7G C13A"
measured_attribute = "aptazyme ON/OFF ratio"
measured = 1.08

[[record]]
alteration = "U8C G9U U10G U11C C12A C13A"
measured_attribute = "aptazyme ON/OFF ratio"
measured = 1.22

[[record]]
alteration = "U7G U8A G9C U11C"
measured_attribute = "aptazyme ON/OFF ratio"
measured = 1.05

[[record]]
alteration = "U7C U8C G9C U11G C12G"
measured_attribute = "aptazyme ON/OFF ratio"
measured = 1.11

[[record]]
alteration = "U7G U8A G9A U10C U11A C12A C13G"
measured_attribute = "aptazyme ON/OFF ratio"
measured = 1.07

[[record]]
alteration = "U7A G9A U10C U11G C12G C13U"
measured_attribute = "aptazyme ON/OFF ratio"
measured = 1.14

[[record]]
alteration = "U7A G9A U10G C12A"
measured_attribute = "aptazyme ON/OFF ratio"
measured = 1.13

[[record]]
alteration = "U7A U8C G9C U10G C12G C13U"
measured_attribute = "aptazyme ON/OFF ratio"
measured = 1.13

[[record]]
alteration = "U7A U8A G9U U10G U11A C12G C13U"
measured_attribute = "aptazyme ON/OFF ratio"
measured = 1.51

[[record]]
alteration = "U7A U8A G9U U11A C13G"
measured_attribute = "aptazyme ON/OFF ratio"
measured = 1.06

[[record]]
alteration = "U8C G9C U11G C12U C13A"
measured_attribute = "aptazyme ON/OFF ratio"
measured = 1.09

[[record]]
alteration = "U7A U8G G9C C12U C13A"
measured_attribute = "aptazyme ON/OFF ratio"
measured = 1.4

[[record]]
alteration = "U8A"
measured_attribute = "aptazyme ON/OFF ratio"
measured = 2.82

[[record]]
alteration = "U7G U8A U10C U11A"
measured_attribute = "aptazyme ON/OFF ratio"
measured = 2.3

[[record]]
alteration = "U8A G9U U10G U11C C12U C13U"
measured_attribute = "aptazyme ON/OFF ratio"
measured = 1.08

[[record]]
alteration = "U7A U8C G9U U10A U11G C12G C13A"
measured_attribute = "aptazyme ON/OFF ratio"
measured = 1.2

[[record]]
alteration = "U7A U8A G9C U10A U11A C12A C13A"
measured_attribute = "aptazyme ON/OFF ratio"
measured = 1.37

[[record]]
alteration = "U7A U8A U11C C12A C13U"
measured_attribute = "aptazyme ON/OFF ratio"
measured = 1.69

[[record]]
alteration = "U7A U8A G9C U10A U11C C12G C13U"
measured_attribute = "aptazyme ON/OFF ratio"
measured = 1.27

[[record]]
alteration = "U7C G9U U11A C12G C13U"
measured_attribute = "aptazyme ON/OFF ratio"
measured = 1.14

[[record]]
alteration = "U7G U10G U11C C13G"
measured_attribute = "aptazyme ON/OFF ratio"
measured = 1.07

[[record]]
alteration = "U7C U8C U11C C13G"
measured_attribute = "aptazyme ON/OFF ratio"
measured = 1.12

